- targetOrSystem: HLA-A*6802 (Human)
- cond: remark: other sources report otherwise
endpointName: IC50

[[record]]
binder = "ILSTLPETTV (modifications not checked) [peptide 1069.14]"
endpointname = "IC50"
testvalue = "5.97 µM"

